Reference source: patent US20250263408A1

Test system: Ba/F3-WT (wild type) cells
run-description: Ba/F3 Proliferation Assay, Ba/F3-WT (wild type) cells with mIL-3 (Resazurin)
Format: cell-based
experimental-context: Mus musculus, BaF3, 48 h, Ba/F3-WT cells +mIL-3, 48-hour incubation
pEC50: −log10 of the molar value.
measured-metric: pEC50

CCn1ccc(-c2cc(OC[C@@H]3CNCCO3)c3nccnc3c2)c1 [Compound 8.22]
6.18

I: CC1(C)CNC[C@@H](COc2nc(-c3cnn(C4(C)CC4)c3)cc3ncccc23)O1 [Compound 2.88]
II: C[C@@H]1NCCO[C@@H]1COc1nc(-c2cnn(C(C)(C)C)c2)cc2ncccc12 [Compound 13.6]
III: C[C@@H](Oc1nc(-c2ccn(C)c2)cc2ncccc12)[C@@H]1CNCC(C)(C)O1 [Compound 2.65]
IV: CC1(C)CNC[C@@H](COc2cc(-c3ccn(CC(F)F)c3)cc3nccnc23)O1 [Compound 8.5]
[ask] Reorder: pEC50, max to min. Could you list the labels in the order requested?
[reply] IV, I, III, II
(IV: 6.13, I: 5.81, III: 5.60, II: 5.26)

1: C[C@@H](Oc1nc(-c2cnn(C)c2)cc2ncccc12)[C@@H]1CNCC(C)(C)O1 [Compound 2.83]
2: CC[C@@H](C)n1cc(-c2cc3ncccc3c(OC[C@@H]3CNCC(C)(C)O3)n2)cn1 [Compound 6.33]
3: CC[C@H]1CNC[C@@H](COc2nc(-c3cnn(C(C)(C)C)c3)cc3ncccc23)O1 [Compound 2.92]
[ask] # rank_down: sort by pEC50, max first As an answer, provide the labels arranged in the order called for.
[reply] 3, 1, 2

I: CC(C)n1cc(-c2cc3ncccc3c(OC[C@@H]3CNCC4(CC4)O3)n2)cn1 [Compound 2.62]
II: CC(C)n1cc(-c2cc(OC[C@@H]3CNCC(C)(C)O3)c3cccnc3c2)cn1 [Compound 3.6]
III: Cn1cc(-c2cc3ncccc3c(OC[C@@H]3CN[C@H]4CCC[C@H]4O3)n2)cn1 [Compound 2.73]
[ask] Sort by pEC50, descending. Dear reader, please state the labels in the requested order.
[reply] I, II, III

---

Test system: Ba/F3-WT (wild type) cells
run-description: Ba/F3 Proliferation Assay, Ba/F3-WT (wild type) cells with mIL-3 (Resazurin)
Type: cell-based
experimental-context: Mus musculus, BaF3, 48 h, Ba/F3-WT cells +mIL-3, 48-hour incubation
pEC50: −log10 of the molar value.
measured-metric: pEC50

See these solved cases before continuing.
Cn1ccc(-c2cc3ncccc3c(OC[C@@H]3CNCC4(CC4)O3)n2)c1 [Compound 2.60]
5.39
CC(C)n1cc(-c2cc3ncccc3c(OC[C@H]3OCCN[C@H]3C)n2)cn1 [Compound 2.96]
6.14
CC1(C)CNC[C@@H](COc2nc(-c3cnn(C(C)(C)C)c3)cc3ncccc23)OC1 [Compound 10.11]
5.38

P: c1cnc2cc(-c3cn[nH]c3)nc(OC[C@@H]3CNCCO3)c2c1 [Compound 2.23]
Q: CC1(C)CNC[C@@H](COc2nc(-c3ccn(CC(F)F)c3)cc3ncccc23)O1 [Compound 6.13]
R: FC1(F)CC(Cn2ccc(-c3cc4ncccc4c(OC[C@@H]4CNCCO4)n3)c2)C1 [Compound 6.42]
[ask] Order the 3 molecules from highest to lowest pEC50. Quick reminder: the answer is the labels in the order asked.
[reply] R, Q, P
(R: 6.08, Q: 5.69, P: 5.24)

---

System: Ba/F3-WT (wild type) cells
run-description: Ba/F3 Proliferation Assay, Ba/F3-WT (wild type) cells with mIL-3 (Resazurin)
Format: cell-based
experimental-context: Mus musculus, BaF3, 48 h, Ba/F3-WT cells +mIL-3, 48-hour incubation
measured-metric: EC50 (nM)

# annotated cases, reported EC50 shown
CC(C)n1cc(-c2cc3ncccc3c(OC[C@@H]3CNCC(C)(C)CO3)n2)cn1
1920
CC1(C)CNC[C@H](COc2nc(-c3cnn(C(C)(C)C)c3)cc3ncccc23)O1
2270
Cc1ccnc2cc(-c3ccn(C4COC4)c3)cc(OC[C@@H]3CNCC(C)(C)O3)c12
867
COc1ccnc2cc(-c3cnn(C(C)(C)C)c3)nc(OC[C@@H]3CNCC(C)(C)O3)c12
519
CC(C)n1ccc(-c2cc(OC[C@@H]3CNCCO3)c3nccnc3c2)c1
969

A: CC(C)(C)n1cc(-c2cc(OC[C@@H]3CNCCO3)c3cccnc3c2)cn1
B: COCn1cc(-c2cc3ncccc3c(OC[C@@H]3CNCCO3)n2)cn1
[ask] Identify the entry with the larger EC50. Options: A and B Selection: enter the item's label.
[reply] A

---

measured-on: Ba/F3-Syk cells (Homo sapiens, UniProt P43405)
Construct: fused on or other part: Possible but unprinted fusion partner: TEL (ETV6), the usual partner for Ba/F3 lines transformed by Syk; Nothing on a partner is printed
run-description: Ba/F3 Proliferation Assay, Ba/F3-Syk cells (Resazurin)
experimental-context: 48-hour incubation
measured-metric: EC50 (µM)

Worked set:
C[C@@H]1CNC[C@@H](COc2cc(-c3ccn(C(C)(C)C)c3)cc3nccnc23)O1 [Compound 12.8]
0.0013
CC(C)(C)n1cc(-c2cc3ncccc3c(O[C@H]3CC[C@@H]4NCCO[C@@H]43)n2)cn1 (relative stereo) [Compound 2.91]
0.0518
CC1(C)CNC[C@@H](COc2nc(-c3cnn(C4CC4)c3)cc3ncccc23)O1 [Compound 2.46]
0.065
C[C@@H](Oc1cc(-c2ccn(C)c2)cc2ncccc12)[C@@H]1CNCC(C)(C)O1 [Compound 11.5]
0.0906
COc1ccnc2cc(-c3cnn(C(C)(C)C)c3)nc(OC[C@@H]3CNCC(C)(C)O3)c12 [Compound 14.15]
0.044
CCc1ccc(-c2cc3ncccc3c(OC[C@@H]3CNCCO3)n2)s1 [Compound 2.36]
0.279
Cc1ncc(-c2cc3ncccc3c(OC[C@@H]3CNCCO3)n2)s1 [Compound 2.30]
0.206
CC(C)n1ccc(-c2cc(OC[C@@H]3CNCC(C)(C)O3)c3nccnc3c2)c1 [Compound 8.3]
0.0056
C[C@@H]1NCCO[C@@H]1COc1nc(-c2cnn(C3(C)CC3)c2)cc2ncccc12 [Compound 13.16]
0.043
F/C=C/n1cc(-c2cc3ncccc3c(OC[C@@H]3CNCCO3)n2)cn1 [Compound 6.8]
0.181

1: CCn1ccc(-c2cc(OC[C@@H]3CNCC4(CCC4)O3)c3nccnc3c2)c1 [Compound 8.16]
2: CC(C)(C)n1cc(-c2cc3ncccc3c(O[C@@H]3CC[C@@H]4NCCO[C@@H]43)n2)cn1 (relative stereo) [Compound 2.90]
3: CC1(C)CNC[C@@H](COc2cc(-c3cnn4c3CCCC4)cc3ncccc23)O1 [Compound 11.2]
4: CCn1ccc(-c2cc(OC[C@@H]3CNCC(C)(C)O3)c3cccnc3c2)c1 [Compound 7.17]
[ask] Put the entries in order of EC50, starting with the largest number. Ranked list of labels, please, in the requested order.
[reply] 3, 2, 4, 1

---

Test system: Ba/F3-WT (wild type) cells
run-description: Ba/F3 Proliferation Assay, Ba/F3-WT (wild type) cells with mIL-3 (Resazurin)
Type: cell-based
experimental-context: Mus musculus, BaF3, 48 h, Ba/F3-WT cells +mIL-3, 48-hour incubation
pEC50: −log10 of the molar value.
measured-metric: pEC50

Cn1cc(-c2cc3ncccc3c(O[C@H]([C@@H]3CNCCO3)C(F)(F)F)n2)cn1
< 5.00
Cn1ccc(-c2cc3ncccc3c(OC[C@@H]3CN[C@@H]4C[C@@H]4O3)n2)c1 (relative stereo)
< 5.00
CC(C)(C)n1cc(-c2cc3ncccc3c(OC[C@H]3O[C@H]4CCN[C@@H]3C4)n2)cn1 (single isomer, unassigned)
< 5.00

Let us examine a further case.
[ask] Note down pEC50 recorded for CC(C)(C)n1cc(-c2cc3ncccc3c(OC[C@@H]3CNCC(F)(F)CO3)n2)cn1
[reply] < 5.00

---

measured-on: Ba/F3-Syk cells (Homo sapiens)
Construct: fused on or other part: Possible but unprinted fusion partner: TEL (ETV6), the usual partner for Ba/F3 lines transformed by Syk; Nothing on a partner is printed
run-description: Ba/F3 Proliferation Assay, Ba/F3-Syk cells (Resazurin)
experimental-context: 48-hour incubation
pEC50: −log10 of the molar value.
measured-metric: pEC50

Examples with answers:
C[C@@H](Oc1nc(-c2cnn(C(C)(C)C)c2)cc2ncccc12)[C@@H]1CNCCO1
7.73
C[C@H]1CNC[C@@H](COc2nc(-c3ccn(C)c3)cc3ncccc23)O1
7.17
CC(F)(F)Cn1cc(-c2cc3ncccc3c(OC[C@@H]3CNCCO3)n2)cn1
7.22
CC(C)n1cc(-c2cc(OC[C@@H]3CNCC(C)(C)O3)c3cccnc3c2)cn1
7.63
CC(C)n1cc(-c2cc3ncccc3c(OC[C@@H]3CNCCCO3)n2)cn1
7.72

1: Cn1cc(-c2cc(OC[C@@H]3CNCCO3)c3cncnc3c2)cn1
2: COCCn1ccc(-c2cc(OC[C@@H]3CNCC4(CC4)O3)c3cccnc3c2)c1
3: COCCn1ccc(-c2cc(OC[C@@H]3CNCC4(CCC4)O3)c3nccnc3c2)c1
[ask] Please give the order of these compounds when sorted by pEC50, largest value leading. Use the labels to give the ranking in the order requested.
[reply] 3, 2, 1
(3: 8.08, 2: 7.65, 1: 5.63)

a: C[C@@H]1CNC[C@@H](COc2cc(-c3cnn(C(C)(C)C)c3)cc3nccnc23)O1
b: c1cnc2cc(-c3cnn(C4CC4)c3)cc(OC[C@@H]3CNCCO3)c2c1
[ask] Between the entries labelled a and b , which has a larger pEC50 value on record? Return value: the label identifying the chosen record.
[reply] a
